test.target: T1, human GPC3-his tag protein (human, UniProt P51654 25-559, limits assumed)
T1 construct: recombinant soluble antigen used as analyte in all Biacore runs; also called recombinant GPC3 protein; rhGPC3-His; not shown: His tag
method.summary: SPR Biacore, mAb captured on CM5, GPC3-his dilution series (full kinetics)
Description: The binding of the humanized antibodies to recombinant GPC3 protein (human GPC3-his tag) was tested by Biacore using a capture method. 52H5D3B8-6 #-V+VL, 52H5D3B8-6 #-VH1+VL1, 52H5D3B8-6 #-VH1+VL3, 52H5D3B8-6 #-V1+VL4, 52H5D3B8-6 #-VH2+VL4, 52H5D3B8-6 #-VH3+VL1, 52H5D3B8-6 #-VH3+VL3 mAbs were captured using CM5 sensor chip. A serial dilution of human GPC3-his tag protein was injected over captured antibody for 2 mins at a flow rate of […]. The antigen was allowed to dissociate for 360 s. […]
pKd: −log10 of the molar value.

binder	pKd
52H5D3B8-6#-VH3+VL1 (antibody, V domains shown, humanized) VH: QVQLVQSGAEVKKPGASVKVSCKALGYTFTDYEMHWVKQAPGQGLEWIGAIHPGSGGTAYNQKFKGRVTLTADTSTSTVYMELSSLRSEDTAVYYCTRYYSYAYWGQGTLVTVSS VL: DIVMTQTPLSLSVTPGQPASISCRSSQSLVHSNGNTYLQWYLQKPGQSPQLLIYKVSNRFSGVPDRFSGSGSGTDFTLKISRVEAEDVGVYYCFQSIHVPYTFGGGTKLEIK	9.00
52H5D3B8-6#-VH1+VL4 (antibody, V domains shown, humanized) VH: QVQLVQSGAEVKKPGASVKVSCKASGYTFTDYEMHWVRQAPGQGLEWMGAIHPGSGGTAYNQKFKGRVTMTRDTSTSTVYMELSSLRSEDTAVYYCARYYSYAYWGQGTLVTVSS VL: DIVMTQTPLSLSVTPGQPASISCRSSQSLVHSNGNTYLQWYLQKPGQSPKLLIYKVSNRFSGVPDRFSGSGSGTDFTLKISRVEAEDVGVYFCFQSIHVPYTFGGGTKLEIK	8.73
52H5D3B8-6#-VH1+VL1 (antibody, V domains shown, humanized) VH: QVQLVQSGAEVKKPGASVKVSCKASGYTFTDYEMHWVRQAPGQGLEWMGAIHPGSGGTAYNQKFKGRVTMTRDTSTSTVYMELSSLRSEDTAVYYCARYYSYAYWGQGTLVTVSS VL: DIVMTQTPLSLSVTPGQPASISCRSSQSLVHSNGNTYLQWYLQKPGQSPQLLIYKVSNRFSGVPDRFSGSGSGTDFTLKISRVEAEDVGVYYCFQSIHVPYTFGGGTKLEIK	8.65
52H5D3B8-6#-VH1+VL3 (antibody, V domains shown, humanized) VH: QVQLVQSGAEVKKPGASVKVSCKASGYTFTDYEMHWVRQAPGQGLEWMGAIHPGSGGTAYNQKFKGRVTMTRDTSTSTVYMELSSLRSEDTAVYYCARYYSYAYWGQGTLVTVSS VL: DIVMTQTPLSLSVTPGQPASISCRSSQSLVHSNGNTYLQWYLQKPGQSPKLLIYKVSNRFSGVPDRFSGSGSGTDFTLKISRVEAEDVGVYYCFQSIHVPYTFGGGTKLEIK	8.75
52H5D3B8-6#-VH2+VL4 (antibody, V domains shown, humanized) VH: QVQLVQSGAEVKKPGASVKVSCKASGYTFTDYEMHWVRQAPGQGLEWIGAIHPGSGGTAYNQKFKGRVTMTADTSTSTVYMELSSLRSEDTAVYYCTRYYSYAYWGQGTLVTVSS VL: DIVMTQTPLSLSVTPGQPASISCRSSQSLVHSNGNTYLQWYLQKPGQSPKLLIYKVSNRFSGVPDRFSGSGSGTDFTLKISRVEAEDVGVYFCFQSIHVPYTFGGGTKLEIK	8.95
52H5D3B8-6#-VH3+VL3 (antibody, V domains shown, humanized) VH: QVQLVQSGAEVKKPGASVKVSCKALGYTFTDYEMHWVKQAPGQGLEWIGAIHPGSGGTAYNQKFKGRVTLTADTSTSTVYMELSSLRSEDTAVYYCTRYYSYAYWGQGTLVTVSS VL: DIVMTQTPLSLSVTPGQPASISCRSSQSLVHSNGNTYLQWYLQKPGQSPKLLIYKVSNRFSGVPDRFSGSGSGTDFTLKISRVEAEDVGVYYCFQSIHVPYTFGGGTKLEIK	9.05
52H5D3B8-6# chimeric mAb (antibody, V domains shown, CDR3 mutant of the 52H5D3B8 chimeric mAb (human IgG1); also called 52H5D3B8-6#-VH+VL) VH: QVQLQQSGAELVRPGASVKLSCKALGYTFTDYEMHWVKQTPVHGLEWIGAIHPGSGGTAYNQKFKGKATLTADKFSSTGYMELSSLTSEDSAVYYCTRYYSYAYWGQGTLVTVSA VL: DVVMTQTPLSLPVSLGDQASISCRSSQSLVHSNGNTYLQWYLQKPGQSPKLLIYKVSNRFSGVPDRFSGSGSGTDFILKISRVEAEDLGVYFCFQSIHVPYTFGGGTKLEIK	9.35
